test: Half life in Mouse serum; format: ADME, organism-based
Assay Metric: half-life
Answer format reminder: number followed by unit.

# example entries with known answers
| Record Smiles | half-life |
| --- | --- |
| Cc1cn([C@H]2C[C@H](N=[N+]=[N-])[C@@H](COC(=O)c3ccc[n+](C)c3)O2)c(=O)[nH]c1=O.[I-] | 64.8 min |
| Cc1cn([C@H]2C[C@H](N=[N+]=[N-])[C@@H](COC(=O)C3=CN(C)C=CC3)O2)c(=O)[nH]c1=O | 84 min |
| CN1C=CCC(C(=O)OC[C@H]2O[C@@H](n3ccc(=O)[nH]c3=O)C[C@@H]2N=[N+]=[N-])=C1 | 33.6 min |

Reported half-life for C[n+]1cccc(C(=O)OC[C@H]2O[C@@H](n3ccc(=O)[nH]c3=O)C[C@@H]2N=[N+]=[N-])c1.[I-] : what is it?
30.6 min

###

Items are presented alongside their recorded half-life.
assay: Half life in phosphate buffer at pH 7.4; format: ADME
Answer format reminder: number followed by unit.

# example entries with known answers
| Record Smiles | Measured |
| --- | --- |
| Cc1cn([C@H]2C[C@H](N=[N+]=[N-])[C@@H](COC(=O)c3ccc[n+](C)c3)O2)c(=O)[nH]c1=O.[I-] | 1.25 h |
| CN1C=CCC(C(=O)OC[C@H]2O[C@@H](n3ccc(=O)[nH]c3=O)C[C@@H]2N=[N+]=[N-])=C1 | 2.13 h |
| C[n+]1cccc(C(=O)OC[C@H]2O[C@@H](n3ccc(=O)[nH]c3=O)C[C@@H]2N=[N+]=[N-])c1.[I-] | 0.87 h |

Reported half-life for Cc1cn([C@H]2C[C@H](N=[N+]=[N-])[C@@H](COC(=O)C3=CN(C)C=CC3)O2)c(=O)[nH]c1=O : what is it?
3.23 h
